# TARGET OR SYSTEM: pooled human IgG (human IgG1, 2, 3 and 4)
READOUT NAME: Enzyme Activity Endpoint Assay: Fab′2 (ng/µL)
Express it in ng/µL; write the number only.

{"PROTEIN": "PRT-598 (protein) MANQEIRYSEETPSTITSVWTKGVTPPTDFIQNEDVLHAPYIANQGWYDITKTFNGKDDLLCGAATAGNMLHWWFDQNKEQIENYLKKHPEKQKINFNGEQMFDVKEAIDTKDSQTDSALFEYFKDKAFPYLSTKHLGVFPDHVIDMFINGYRLSLTNHGPTPVKRGTKDPRGGIFDAVFTRGDQSKLLTSRHDFKEKTLNEISDLIKQELTEGKALGLSHTYANVRINHVINLWGADFNAEGNLEAIYVTDSDSNASIGMKKYFVGVNSAGKVAISAKEIEGDNIGAQVLGLFTLSTGQDIWNQTNLEHHHHHH", "READOUT NAME": "Enzyme Activity Endpoint Assay: Fab′2", "UNIT SYMBOL": "ng/µL", "MEASUREMENT": 567}

Read the entry PRT-545 (protein) MANQEIRYSEETPKTITSVWTKGVTPPTDFIKNEDVLHAPYIANQGWYDITKTFNGKDDLLCGAATAGNMLHWWFDQNKEEIERYLKKHPEKQKINFNGEQMFDVKEAIDTKDSQTDSALFEYFKDKAFPYLSTKHLGVFPDHVIDMFINGYRLSLTNHGPTPVKRGTKDPRGGIFDAVFTRGDQSKLLTSRHDFKEKTLKEISDLIKQELTEGKALGLSHTYANVRINHVINLWGADFDSEGNLEAIYVTDSDSNASIGMKKYYVGVNSAGKVAISAKEIEGDNIGAQVLGLFTLSTGQDIWEQTNLEHHHHHH and write its reported Enzyme Activity Endpoint Assay: Fab′2.
690

Taken from patent US20250027068.
